- assay details: JC-1 mitochondrial signal, unstimulated HepG2 cells – cell-based, JC-1 fluorescence, 24 h, 100 nL compound, profiling panel (AID 1167); note: test concentration not given here
- stated conditions: HepG2 mitochondrial potential, higher = more signal
Readings of z-score for the listed compounds
metric name: z-score

>>> value("C=C(/C(=C/C[C@@H](OC(=O)c1ccncc1)c1cccc(OCCO)c1)c1cc(C(=O)OC)ccc1OC)C(C)C")
2.71
>>> value("COCCOC(=O)N1C(=O)[C@@]2(c3cc(C#CCCO)ccc31)[C@H](C(=O)NC[C@H](O)c1ccccc1)[C@H]1C(=O)O[C@H](c3ccccc3)[C@H](c3ccccc3)N1[C@@H]2c1ccccc1OCCO")
-1.36
>>> value("O=C1NC(=O)C2C1C=CC(C(O)CCc1ccccc1)N2Nc1ccccn1 (configuration not stated)")
-0.149
>>> value("C[C@H]1ON(c2ccccc2)[C@@H](c2ccccc2)[C@@H]1C(=O)N1C(=O)OC[C@@H]1c1ccccc1")
-1.24
>>> value("CC(C)N1C(=O)c2ccccc2[C@](C)(C(=O)O)[C@@H]1c1ccc(CO)cc1")
0.0703
>>> value("C=CCOC(=O)[C@H]1[C@@H]2C(=O)O[C@@H](c3ccccc3)[C@@H](c3ccccc3)N2[C@@H](c2ccc(OCCOC(=O)[C@H]3C[C@H]4C(=O)N[C@@H](CCCCN(C)C)C(=O)N4[C@H]3c3ccc(O)cc3)cc2)[C@]12C(=O)Nc1ccccc12")
-1.63
>>> value("Cc1ccc(N2C(=O)c3ccccc3[C@](C)(C(=O)NC(C)C)[C@@H]2c2ccc(CO)cc2)nc1")
-0.42

====

- assay details: probe aEGFR binding to arrayed compounds – biochemical, biotinylated probe, 635/667 nm fluorescence, primary screen (AID 1097);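 note: probe is a biotinylated anti-EGFR antibody binding compounds printed on slides; score combines fluorescence near 667 nm and signal to noise of each spot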
- stated conditions: small-molecule microarray, higher = more signal
metric name: composite z-score

>>> value("C=CCOC(=O)[C@@H]1[C@H]2C(=O)O[C@H](c3ccccc3)[C@H](c3ccccc3)N2[C@H](c2ccc(OCCOC(=O)[C@H]3C[C@H]4C(=O)N[C@@H](Cc5ccccc5)C(=O)N4[C@H]3c3cccc(OCCO)c3)cc2)[C@@]12C(=O)Nc1ccc(I)cc12")
0.276
>>> value("CN(C)CCCN1C(=O)[C@@]2(Cc3ccccc31)c1ccccc1C(=O)N(Cc1ccccc1)[C@H]2c1ccc(CO)cc1")
-0.184
>>> value("C=C[C@@H](O)[C@H]1CC(c2ccccc2)=NO1")
-0.0844
>>> value("C=CCC(OC(C)=O)[C@@H]1[C@@H](N(Cc2cccc3ccccc23)C(=O)Cc2ccc(F)cc2)c2cc(OCCCO)ccc2N1C(=O)Cc1ccc(OC)cc1 (some centres not stated)")
-0.309
>>> value("CCOC(=O)C1=CC[C@@H](c2cccc(Br)c2)N(S(=O)(=O)c2ccc(C)cc2)[C@H]1c1ccc([N+](=O)[O-])cc1")
0.254
>>> value("COCC(=C=CC[C@@H](O)c1ccccc1OCCO)C[C@@H](O)c1ccccn1")
-0.0512
>>> value("COC(=O)[C@H]1N=C(c2ccc(OCCCO)cc2)O[C@H]1c1ccccc1CN=[N+]=[N-]")
-0.131

====

- assay details: JC-1 mitochondrial signal, unstimulated MM1S myeloma – cell-based, JC-1 fluorescence, 24 h, 100 nL compound, profiling panel (AID 1170); note: test concentration not given here
- stated conditions: MM1S mitochondrial potential, higher = more signal
metric name: z-score

>>> value("CCOC(=O)C[C@H]1[C@H](OC(=O)c2ccc(C(=O)c3ccccc3)cc2)[C@@H](NC(=O)C2CCCCC2)c2cc(OCCCO)ccc2N1C(=O)Cc1ccc(OC)cc1")
-0.812
>>> value("C[N+](C)(C)CCCC[C@@H]1NC(=O)[C@H]2C[C@@H](C(=O)NCCCCCCN)[C@@H](c3cccc(OCCO)c3)N2C1=O")
-0.154
>>> value("CCOC(=O)C1=CCC(c2cccc(Cl)c2)O1 (configuration not stated)")
-0.472
>>> value("C=CCOC(=O)[C@H]1[C@@H]2C(=O)O[C@@H](c3ccccc3)[C@@H](c3ccccc3)N2[C@@H](c2ccc(OCCOC(=O)[C@H]3C[C@H]4C(=O)N[C@@H](CCCCN(C)C)C(=O)N4[C@H]3c3ccc(O)cc3)cc2)[C@]12C(=O)Nc1ccccc12")
-0.391
>>> value("C=CC[C@]1(C(=O)N(C)C)N=C(c2ccc(OCCCO)cc2)O[C@H]1c1ccccc1")
-1.33
>>> value("C=C(CCCC)/C(=C/C[C@H](OC(=O)c1ccncc1)c1ccc(CO)o1)c1cc(C(=O)OC)ccc1OC")
-0.207
>>> value("C=C(/C(=C/C[C@@H](OC(=O)c1ccncc1)c1cccc(OCCO)c1)c1cc(C(=O)OC)ccc1OC)C(C)C")
-1.02

====

Readings of composite z-score for the listed compounds
- target of assay: Calmodulin-1 (Homo sapiens) (UniProt P0DP23)
- assay details: small molecules binding Ca-loaded calmodulin-1 – biochemical, small-molecule microarray, Cy5-labelled CALM1, plus calcium, artefact control for SMM control-protein annotation, profiling panel (AID 1112);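 note: score merges spot fluorescence with signal to noise from triplicate slides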
- stated conditions: Cy5-CALM1 binding fluorescence, higher = more signal
metric name: composite z-score

>>> value("COC(=O)[C@]1(Cc2ccccc2CN=[N+]=[N-])N=C(c2ccc(OCCCO)cc2)O[C@@H]1c1ccccc1CN=[N+]=[N-]")
-0.271
>>> value("CN(C)C(=O)[C@@]1(CCS(=O)(=O)c2ccccc2)N=C(c2ccc(OCCCO)cc2)O[C@H]1c1ccccc1CN=[N+]=[N-]")
-0.335
>>> value("CC(C)C[C@@H]1NC(=O)[C@@]23C(=O)N[C@@H](Cc4ccccc4)C2[C@H](C)[C@@]2(C)O[C@H]2C3/C=C/C/C=C\\CNC(=O)[C@@H]2CCCN2C1=O (stereo partly drawn)")
-0.721

====

Readings of composite z-score for the listed compounds
- assay details: probe aLefty1 binding on compound microarray – biochemical, small-molecule microarray, 635/667 nm fluorescence, primary screen (AID 1153);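 note: score merges spot fluorescence with signal-to-noise ratio from the scanned slide images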
- stated conditions: higher = more signal
metric name: composite z-score

>>> value("COc1cc2c(cc1OC)CN(C(=O)[C@@H]1[C@H]3C(=O)O[C@H](c4ccccc4)[C@H](c4ccccc4)N3[C@H](c3ccc(O)cc3)[C@@]13C(=O)Nc1ccc(C#CCNC(N)=O)cc13)CC2")
0.231
>>> value("COC(=O)[C@@]1(Cc2ccc(F)cc2)[C@H]2c3cc(C(=O)N(C)C)n(Cc4ccc(C)c(F)c4F)c3C[C@H]2CN1C(=O)c1ccccc1")
0.159
>>> value("C[C@@H]1ON(c2ccccc2)[C@H](c2ccccc2)[C@H]1C(=O)N1C(=O)OC[C@H]1Cc1ccccc1")
-0.294
>>> value("CO[C@H]1O[C@H](CO)[C@@H](OC(=O)c2ccc(Br)cc2)[C@@H]2OC(=O)[C@H](Cc3cccc(Br)c3)C/C=C/C[C@@H](Cc3cccc(Br)c3)C(=O)O[C@@H]12")
0.415
>>> value("O=C1O[C@H](c2ccccc2)[C@H](c2ccccc2)N2[C@H]1[C@@H](C(=O)N1CCN(c3ncccn3)CC1)[C@]1(C(=O)Nc3ccc(C#CCCO)cc31)[C@H]2c1ccccc1OCCO")
-0.012
>>> value("CCCC=C(CCC)[C@@H](NS(=O)(=O)CC)c1ccccc1")
0.443

====

- target of assay: Calmodulin-1 (Homo sapiens) (UniProt P0DP23)
- assay details: small molecules binding Ca-loaded calmodulin-1 – biochemical, small-molecule microarray, Cy5-labelled CALM1, plus calcium, artefact control for SMM control-protein annotation, profiling panel (AID 1112);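 note: score merges spot fluorescence with signal to noise from triplicate slides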
- stated conditions: Cy5-CALM1 binding fluorescence, higher = more signal
Decide by composite z-score: equal to or exceeding 0.4 means True, less means False.

>>> answer_label("COC(=O)C(CC#Cc1ccc2c(c1)[C@]1(C(=O)N2)[C@H](C(=O)N2CCc3cc(OC)c(OC)cc3C2)[C@H]2C(=O)O[C@H](c3ccccc3)[C@H](c3ccccc3)N2[C@@H]1c1ccc(O)cc1)C(=O)OC")
"True"
>>> answer_label("NC(=O)NCC#Cc1ccc2c(c1)[C@]1(C(=O)N2)[C@H](c2ccc(O)cc2)N2[C@H](c3ccccc3)[C@H](c3ccccc3)OC(=O)[C@H]2[C@@H]1C(N)=O")
"False"
>>> answer_label("COCCCNC(=O)[C@@]1(Cc2ccccc2)COC(c2ccc(OCCCO)cc2)=N1")
"False"
>>> answer_label("COCCOC(=O)N1C(=O)[C@@]2(c3cc(C#CCCO)ccc31)[C@H](c1ccc(OCCO)cc1)N1[C@H](c3ccccc3)[C@H](c3ccccc3)OC(=O)[C@H]1[C@@H]2C(=O)N1CCc2cc(OC)c(OC)cc2C1")
"False"
>>> answer_label("COCCOC(=O)N1C(=O)[C@@]2(c3cc(C#CCC(C(=O)OC)C(=O)OC)ccc31)[C@H](c1ccc(OCCO)cc1)N1[C@H](c3ccccc3)[C@H](c3ccccc3)OC(=O)[C@H]1[C@@H]2C(N)=O")
"False"
